- Read-out: Lipoprotein lipase (LPL), LPL (gene 4023)
- test: LTEA_HepaRG_LPL: Life Technologies and Expression Analysis (LTEA) Assay for Lipoprotein lipase (LPL) using HepaRG (AID 2283515)
- condition summary: mRNA level, 48 h; actives raise or lower the signal
The source made the active and inactive calls. How the source made its calls: active means hit-call score of the fitted dose curve at least 0.9, where 1 is the maximum; inactive means score below 0.9.
Outcomes: true = active, false = inactive

| molecule | group |
| --- | --- |
| C#CCOC(=O)[C@@H](C)Oc1ccc(Oc2ncc(Cl)cc2F)cc1 | false |
| COc1c(Cl)ccc(Cl)c1C(=O)O | false |
| COC(=O)CSc1cc(N=c2sc(=O)n3n2CCCC3)c(F)cc1Cl | false |
| CCCN(CCC)C(=O)SCC | false |
| Cc1nn(C)c(Oc2ccccc2)c1C=NOCc1ccc(C(=O)OC(C)(C)C)cc1 | true |
| CCCCCCC(C)OC(=O)COc1nc(F)c(Cl)c(N)c1Cl (stereo not drawn) | false |
| CCSC(=O)N(CC(C)C)CC(C)C | false |
| COC(=O)c1ccc(I)cc1S(=O)(=O)NC(=O)Nc1nc(C)nc(OC)n1 | false |
| CCOC(=O)NCCOc1ccc(Oc2ccccc2)cc1 | true |
| CCOC(=O)C(C)Oc1ccc(Oc2nc3ccc(Cl)cc3o2)cc1 (stereo not drawn) | false |
| CC(C)(c1ccc(O)cc1)c1ccc(O)cc1 | false |
| CCCCCOC(=O)COc1cc(N2C(=O)C3=C(CCCC3)C2=O)c(F)cc1Cl | false |
| O=C(Nc1ccc([N+](=O)[O-])cc1Cl)c1cc(Cl)ccc1O | false |
| O=C(O)c1ccccc1 | false |
| CCCOC(=O)NCCCN(C)C | false |
| O=C(c1ccc(O)cc1O)c1ccc(O)cc1O | false |
| CCOC(=O)COc1cc(-n2ncc(C(F)(F)F)c(C)c2=O)c(F)cc1Cl | false |
| c1ccc2[nH]c(-c3cscn3)nc2c1 | false |

###

- Read-out: Interleukin-1 alpha (IL1a), IL1A (gene 3552)
- test: BSK_KF3CT_IL1a: BioMAP Diversity Plus: KF3CT Assay for Interleukin-1 alpha (IL1a) Biomarker Activity (AID 2283070)
- condition summary: primary human keratinocytes with fibroblasts; actives raise or lower the signal
Calls of active or inactive are those of the source. How the source made its calls: active means hit-call score of the fitted dose curve at least 0.9, where 1 is the maximum; inactive means score below 0.9.
Outcomes: T = active, F = inactive

| compound | group |
| --- | --- |
| S=C(S)NCCNC(=S)S.[Mn+2].[S-]C([S-])=NCCN=C([S-])[S-].[Zn+2] | F |
| C#CCOC(=O)[C@@H](C)Oc1ccc(Oc2ncc(Cl)cc2F)cc1 | F |
| CCCN(CCC)C(=O)SCC | F |
| CCCCOCCOCCOCc1cc2c(cc1CCC)OCO2 | F |
| CC(C)(C)[C@@H](O)[C@@H](Cc1ccc(Cl)cc1)n1cncn1 | F |
| S=C([S-])NCCNC(=S)[S-].[Mn+2] | F |
| COC(=O)c1ccccc1C(=O)O | F |
| CCOC(=O)[C@H](C)Oc1ccc(Oc2nc3ccc(Cl)cc3o2)cc1 | F |
| Oc1ccc(C(c2ccc(O)cc2)C(Cl)(Cl)Cl)cc1 | T |
| CCOC(=O)NCCOc1ccc(Oc2ccccc2)cc1 | F |
| COC(=O)c1ccc(I)cc1S(=O)(=O)NC(=O)Nc1nc(C)nc(OC)n1 | F |
| CN(C)C(=O)Nc1ccc(Cl)c(Cl)c1 | F |
| CC(C)(c1ccc(O)cc1)c1ccc(O)cc1 | F |
| CCCCC(CC)CN1C(=O)C2C3C=CC(C3)C2C1=O (stereo not given) | F |
| c1ccc(Nc2ccccc2)cc1 | F |
| CCCCC(CC)COC(=O)c1ccccc1C(=O)O (stereo not given) | F |
| O=C(Nc1ccc([N+](=O)[O-])cc1Cl)c1cc(Cl)ccc1O | T |
| C=CCOC(Cn1ccnc1)c1ccc(Cl)cc1Cl (stereo not given) | F |
| COc1c(Cl)ccc(Cl)c1C(=O)O | F |
| CCCOC(=O)NCCCN(C)C | F |

###

- Read-out: Low-density lipoprotein receptor (LDLR), LDLR (gene 3949)
- test: BSK_CASM3C_LDLR: BioMAP Diversity Plus: CASM3C Assay for Low-density lipoprotein receptor (LDLR) Biomarker Activity (AID 2283045);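 further: LDLR protein level on the cell surface quantified by ELISA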
- condition summary: primary human coronary artery smooth muscle cells; actives raise or lower the signal
Active and inactive are the calls of the source. Rule for the calls: active = hit-call score of the fitted dose curve at least 0.9, where 1 is the maximum; inactive = score below 0.9.
Outcomes: active, inactive

| compound | group |
| --- | --- |
| C#CCOC(=O)[C@@H](C)Oc1ccc(Oc2ncc(Cl)cc2F)cc1 | inactive |
| CCCN(CCC)c1c([N+](=O)[O-])cc(C(F)(F)F)c(N)c1[N+](=O)[O-] | inactive |
| CC(C)(C)[C@@H](O)[C@@H](Cc1ccc(Cl)cc1)n1cncn1 | inactive |
| OB(O)O | inactive |
| CCOC(=O)C(C)Oc1ccc(Oc2nc3ccc(Cl)cc3o2)cc1 (configuration not stated) | inactive |
| CCC(O)=C1C(=O)CC(C(=O)O)CC1=O (configuration not stated) | inactive |
| CCC(C)OC(=O)N1CCCCC1CCO (configuration not stated) | inactive |
| C=CCOC(Cn1ccnc1)c1ccc(Cl)cc1Cl (configuration not stated) | inactive |
| N[C@@H](Cc1cc(I)c(Oc2ccc(O)c(I)c2)c(I)c1)C(=O)O | inactive |
| CCN(Cc1c(F)cccc1Cl)c1c([N+](=O)[O-])cc(C(F)(F)F)cc1[N+](=O)[O-] | active |
| CC(=O)S[C@@H]1CC2=CC(=O)CC[C@]2(C)[C@H]2CC[C@@]3(C)[C@@H](CC[C@@]34CCC(=O)O4)[C@H]12 | inactive |
| CCCCCCC(C)OC(=O)COc1nc(F)c(Cl)c(N)c1Cl (configuration not stated) | inactive |
| CCCCC(CC)COC(=O)c1ccccc1C(=O)O (configuration not stated) | inactive |
| COC(=O)c1ccccc1C(=O)O | inactive |
| COC(=O)c1ccccc1S(=O)(=O)NC(=O)Nc1nc(OC(F)F)cc(OC(F)F)n1 | inactive |
| CCCCOC(=O)C(C)Oc1ccc(Oc2ccc(C(F)(F)F)cn2)cc1 (configuration not stated) | inactive |
| O=C(c1ccccc1)C1CCCCC1 | inactive |
| COC(=O)c1ccc(CNS(C)(=O)=O)cc1S(=O)(=O)NC(=O)Nc1nc(OC)cc(OC)n1 | inactive |
| Cc1nn(C)c(Oc2ccccc2)c1C=NOCc1ccc(C(=O)OC(C)(C)C)cc1 | inactive |
| Oc1ccc(C(c2ccc(O)cc2)C(Cl)(Cl)Cl)cc1 | inactive |
| C#C[C@]1(O)CC[C@H]2[C@@H]3CCC4=CC(=O)CC[C@@H]4[C@H]3CC[C@@]21CC | inactive |
| CC(C)(c1ccc(O)cc1)c1ccc(O)cc1 | inactive |

###

- subject of test: zebrafish Estrogen Receptor (ESR1), esr1 (gene 259252) (UniProt P57717)
- Sequence (P57717 whole entry, looked up): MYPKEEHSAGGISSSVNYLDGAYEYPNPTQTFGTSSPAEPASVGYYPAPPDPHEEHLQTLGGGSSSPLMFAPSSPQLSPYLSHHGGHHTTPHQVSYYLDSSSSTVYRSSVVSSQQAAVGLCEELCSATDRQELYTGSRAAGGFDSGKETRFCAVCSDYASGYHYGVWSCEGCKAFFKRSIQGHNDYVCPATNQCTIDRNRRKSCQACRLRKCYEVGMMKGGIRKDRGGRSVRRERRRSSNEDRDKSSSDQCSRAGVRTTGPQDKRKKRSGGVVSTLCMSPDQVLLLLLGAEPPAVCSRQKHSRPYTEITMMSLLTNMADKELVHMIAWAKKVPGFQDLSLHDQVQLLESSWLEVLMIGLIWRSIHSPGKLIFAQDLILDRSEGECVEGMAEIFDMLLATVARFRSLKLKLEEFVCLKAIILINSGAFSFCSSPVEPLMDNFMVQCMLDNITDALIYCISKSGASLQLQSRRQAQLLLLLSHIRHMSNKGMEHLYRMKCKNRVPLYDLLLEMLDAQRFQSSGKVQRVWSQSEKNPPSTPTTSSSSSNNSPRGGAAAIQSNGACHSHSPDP
- test: ATG_zfER1_XSP1: Attagene TRANS-FACTORIAL Multi-Species (XSP1) HepG2 Assay for zebrafish Estrogen Receptor (ESR1) (AID 2283772)
- Experimental: ATG_XSP1_multi-species_TRANS is a cell-based, multiplexed assay created by modifying the existing Attagene TRANS-FACTORIAL system to include a panel of nuclear receptors from some or all the following species: human (Homo sapiens), mouse (Mus musculus), frog (Xenopus laevis), zebrafish (Danio rerio), chicken (Gallus gallus), and turtle (Chrysemys picta). The ECOTOX-FACTORIAL format uses HepG2, a human liver cell line, with measurements taken at 24 hours after chemical dosing in a 24-well plate. […]
Results filed as inconclusive are left out. Active and inactive are the calls of the source. How the source made its calls: active means hit-call score of the fitted dose curve at least 0.9, where 1 is the maximum; inconclusive means response in the unintended direction; inactive means score below 0.9.
Outcomes: active, inactive

| molecule | subject of test | group |
| --- | --- | --- |
| CC(C)CCCCCCc1ccc(O)cc1 | zebrafish Estrogen Receptor (ESR1), esr1 (gene 259252) (UniProt P57717) | active |
| Oc1ccc(C(c2ccc(O)cc2)C(Cl)(Cl)Cl)cc1 | zebrafish Estrogen Receptor (ESR1), esr1 (gene 259252) (UniProt P57717) | inactive |
| CC1(C)C(C=C(Cl)Cl)C1C(=O)OCc1cccc(Oc2ccccc2)c1 (stereo not drawn) | zebrafish Estrogen Receptor (ESR1), esr1 (gene 259252) (UniProt P57717) | inactive |

###

- Read-out: ABC Transporter (ABCC2), ABCC2 (gene 1244)
- test: LTEA_HepaRG_ABCC2: Life Technologies and Expression Analysis (LTEA) Assay for ABC Transporter (ABCC2) using HepaRG (AID 2283464)
- condition summary: mRNA level, 48 h; actives raise or lower the signal
Active and inactive are the calls of the source. How the source made its calls: active means hit-call score of the fitted dose curve at least 0.9, where 1 is the maximum; inactive means score below 0.9.
Outcomes: active, inactive

| compound | group |
| --- | --- |
| CCCCOCCOCCOCc1cc2c(cc1CCC)OCO2 | active |
| CCN(CC)C(=O)c1cccc(C)c1 | active |
| O=C(c1ccc(O)cc1O)c1ccc(O)cc1O | inactive |
| CCCCOC(=O)[C@@H](C)Oc1ccc(Oc2ccc(C(F)(F)F)cn2)cc1 | inactive |
| CCN(Cc1c(F)cccc1Cl)c1c([N+](=O)[O-])cc(C(F)(F)F)cc1[N+](=O)[O-] | active |
| CCCCC(CC)CN1C(=O)C2C3C=CC(C3)C2C1=O (configuration not stated) | inactive |
| COCCO | inactive |
| CCOC(=O)C(C)Oc1ccc(Oc2nc3ccc(Cl)cc3o2)cc1 (configuration not stated) | inactive |
| O=C(O)C1(C(=O)Nc2ccc(Cl)cc2Cl)CC1 | active |
| Cc1nn(C)c(Oc2ccccc2)c1C=NOCc1ccc(C(=O)OC(C)(C)C)cc1 | inactive |
| C=CCOC(Cn1ccnc1)c1ccc(Cl)cc1Cl (configuration not stated) | active |
| CCSC(=O)N(CC(C)C)CC(C)C | inactive |
| COC(=O)c1ccccc1C(=O)O | inactive |
| C#CCOC(=O)[C@@H](C)Oc1ccc(Oc2ncc(Cl)cc2F)cc1 | inactive |
| C#C[C@]1(O)CC[C@H]2[C@@H]3CCC4=CC(=O)CC[C@@H]4[C@H]3CC[C@@]21CC | inactive |
| CCOC(=O)COc1cc(-n2ncc(C(F)(F)F)c(C)c2=O)c(F)cc1Cl | inactive |
| O=C(Nc1ccc([N+](=O)[O-])cc1Cl)c1cc(Cl)ccc1O | active |
| CC1(C)C(C=C(Cl)Cl)C1C(=O)OCc1cccc(Oc2ccccc2)c1 (configuration not stated) | inactive |
| CSC(=O)c1cccc2nnsc12 | inactive |
| COc1c(Cl)ccc(Cl)c1C(=O)O | inactive |
| CCC(C)OC(=O)N1CCCCC1CCO (configuration not stated) | inactive |
| CCCCC(CC)COC(=O)c1ccccc1C(=O)O (configuration not stated) | inactive |
